assay: Thermodynamic solubility of the compound in pH 6.8 phosphate buffer after 24 hrs by HPLC analysis; type: physicochemical; conditions: read-out: Therm_solubility
Reported metric: solubility thermodynamic at 24 h (µM)
// note: answer is a bare numeric in µM

q: Requested read-out: solubility thermodynamic at 24 h. Entry: CC(C)NC(=O)c1cc(F)c(-c2cc3nnn(C4CCN(C(=O)OC(C)C)CC4)c3cn2)cc1F
a: 0.84

====

# maps each entry to its EC50
Molecular target: Glucose-dependent insulinotropic receptor (Homo sapiens)
Sequence (Q8TDV5 whole entry): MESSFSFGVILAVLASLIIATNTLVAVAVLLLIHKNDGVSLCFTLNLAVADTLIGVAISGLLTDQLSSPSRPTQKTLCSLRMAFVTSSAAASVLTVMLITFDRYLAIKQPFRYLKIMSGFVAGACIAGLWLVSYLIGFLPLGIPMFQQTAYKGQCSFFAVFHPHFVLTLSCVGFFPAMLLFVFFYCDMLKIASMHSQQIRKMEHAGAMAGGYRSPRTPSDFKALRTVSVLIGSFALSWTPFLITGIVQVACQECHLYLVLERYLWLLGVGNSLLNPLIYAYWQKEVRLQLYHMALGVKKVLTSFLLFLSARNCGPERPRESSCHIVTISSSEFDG
Assay: Agonist activity at human GPR119 expressed in Flp-In-T-Rex-HEK293 cells assessed as stimulation of cAMP level measured after 30 mins by HTRF assay
Format: functional, cell-based
// note: answer is a bare numeric in nM

Previously resolved entries follow.
# Query smiles, Unit abbrev, Reported
data = [
    ("CCNC(=O)c1ccc(-c2cc3nnn(C4CCN(c5ncc(CC)cn5)CC4)c3cn2)c(C)c1", "nM", 19),
    ("CCc1cnc(N2CCC(n3ncc4c(C)c(-c5ccc(S(C)(=O)=O)cc5)ccc43)CC2)nc1", "nM", 3420),
    ("CCNC(=O)c1cc(C)c(-c2cc3nnn(C4CCN(c5ncc(CC)cn5)CC4)c3cn2)c(C)c1", "nM", 83),
]

Let's switch to this compound now.
q: Requested read-out: EC50. Entry: CCNC(=O)c1c(C)cc(-c2cc3nnn(C4CCN(c5ncc(CC)cn5)CC4)c3cn2)cc1C
a: 27

====

test: Drug metabolism in human liver microsomes assessed per mg protein after 15 mins; format: ADME, microsome; conditions: read-out: Drug metabolism
Reported metric: metabolised at 0.25 h (%)
// note: answer is a bare numeric in %

q: Requested read-out: metabolised at 0.25 h. Entry: CC(C)OC(=O)N1CCC(n2nnc3cc(-c4cc(F)c(C(=O)N5CCC5)cc4F)ncc32)CC1
a: 5.4

q: Requested read-out: metabolised at 0.25 h. Entry: CCNC(=O)c1cc(F)c(-c2cc3nnn(C4CCN(C(=O)OC(C)C)CC4)c3cn2)cc1F
a: 11

q: Requested read-out: metabolised at 0.25 h. Entry: CCNC(=O)c1cc(F)c(-c2cc3cnn(C4CCN(C(=O)OC(C)C)CC4)c3cn2)cc1F
a: 12.4

q: Requested read-out: metabolised at 0.25 h. Entry: CC(C)OC(=O)N1CCC(n2nnc3cc(-c4cc(F)c(C(=O)N5CCCC5)cc4F)ncc32)CC1
a: 9.3

====

# maps each entry to its solubility thermodynamic at 24 h
assay: Thermodynamic solubility of the compound in pH 6.8 phosphate buffer after 24 hrs by HPLC analysis; assay type: physicochemical; details: read-out: Therm_solubility
// note: answer is a bare numeric in µM

# Query smiles, solubility thermodynamic at 24 h (µM)
rows = [
    ("CC(C)(OC(=O)N1CCC(n2ncc3cc(-c4ccc(S(C)(=O)=O)cc4)ncc32)CC1)C(F)F", 0.28),
    ("CC(C)OC(=O)N1CCC(n2ncc3cc(-c4ccc(S(C)(=O)=O)cc4)ncc32)CC1", 1.51),
]

q: Requested read-out: solubility thermodynamic at 24 h. Entry: CCNC(=O)c1ccc(-c2cc3nnn(C4CCN(c5ncc(CC)cn5)CC4)c3cn2)cc1C(F)(F)F
a: 0.51
